B1: ZNF75A (parent)
chain: RTHTGEQPYTCSICRRNFSRRSSL

Variants of: B1
Assay: protein stability index of a GFP-peptide fusion (GPS, HEK-293T) (PSI 1-6); higher = more stable;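 further: lentivirally expressed fusions sorted by FACS into six bins by GFP to DsRed ratio, PSI derived from sequencing read proportions per bin multiplied by bin number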
Settings: c terminus: a fixed tail appended
Classification field: enter label 1 for protein stability index values not below 3, label 0 for values below it.

{"columns": ["changes", "classification"],
 "data": [
  ["T10W", "label 0"],
  ["S22E", "label 0"],
  ["T2R", "label 1"],
  ["Q7C", "label 1"],
  ["Q7S", "label 0"],
  ["E6A", "label 0"],
  ["F18S", "label 0"],
  ["S19Q", "label 0"],
  ["S23N", "label 0"],
  ["C11Q", "label 1"],
  ["S22H", "label 1"],
  ["S12M", "label 0"],
  ["S19M", "label 0"],
  ["T10Q", "label 0"],
  ["Q7H", "label 0"],
  ["S12Q", "label 0"],
  ["G5Q", "label 0"],
  ["L24F", "label 0"],
  ["Q7W", "label 0"],
  ["T2I", "label 0"]
]}

Sourced from the supplement of paper PMC10567573
